system: OVCAR-3 ovarian; experiment: NCI-60 one-dose screen, 48 h; details: 10 µM unless noted
This is part of a sample that, as a whole, favours compounds with a hit. Of some 83,000 tested, about 20% had one in any assay. The source made the active and inactive calls. The calls were made as follows: active = growth percent below 10; inactive = the rest.
Select the matching outcome among active, inactive

Q) Please let me know the test result on file for O=C1CSC(c2ccccc2Cl)N1c1nnc(Cn2nnc3ccccc32)o1 (configuration not stated) .
A) inactive

Q) Please let me know the test result on file for O=c1ccn(C2CC=C(CO)O2)c(=O)[nH]1 (configuration not stated) .
A) inactive

Q) Please let me know the test result on file for `O=C(N/N=C/c1cccc(O)c1O)c1ccccc1` .
A) inactive

Q) Please let me know the test result on file for `C=C(CN1CCc2c([nH]c3ccccc23)C1)c1ccc(C(=O)Nc2ccon2)cc1` .
A) inactive

Q) Please let me know the test result on file for `C/C(=C\CCc1ccoc1)CC/C=C(\C)CCCN1CCSCC1` .
A) inactive

Q) Please let me know the test result on file for COc1ccc(C2=NN(C=O)C(c3cccc(Nc4ccnc5cc(Cl)ccc45)c3)C2)cc1 (configuration not stated) .
A) inactive

Q) Please let me know the test result on file for Cc1ccc(C2=NNC(c3sc(Cl)nc3Cl)C2)cc1 (configuration not stated) .
A) inactive

Q) Please let me know the test result on file for `COc1ccc(CCN2C(=O)CCC3=C2CCCC3=O)cc1OC` .
A) inactive

Q) Please let me know the test result on file for Cc1ccccc1NC(=O)NC(CC(N)=O)c1ccc2c(c1)nc(-c1cccc(Oc3ccc(C(C)(C)C)cc3)c1)n2CCCN1CCCCC1C (configuration not stated) .
A) inactive

Q) Please let me know the test result on file for COc1cc2c(cc1OC)C(CC1(O)CCCCC1)N(S(=O)(=O)c1ccc(C)cc1)CC2 (configuration not stated) .
A) active

Q) Please let me know the test result on file for `CCCCNCCCN(CCCC)CCCNCCCC` .
A) inactive

Q) Please let me know the test result on file for CC(=O)N1N=C(c2ccc(C(F)(F)F)cc2)CC1c1ccc2c(c1)OCO2 (configuration not stated) .
A) inactive

Q) Please let me know the test result on file for `COc1ccc(CC(=O)Nc2nn3c(-c4cc(C(F)(F)F)cc(C(F)(F)F)c4)nnc3s2)cc1` .
A) inactive

Q) Please let me know the test result on file for `COc1cc(/C=N/NC(=O)c2ccc(C(F)(F)F)nc2Nc2ccc(Cl)cc2C)ccc1O` .
A) inactive

Q) Please let me know the test result on file for `Cc1ccc2nc3c(n2c1)C(=O)C(=O)c1ccccc1-3` .
A) active

Q) Please let me know the test result on file for `C1=C(Cc2ccccc2)n2cnc3ncnc(c32)S1` .
A) inactive

Q) Please let me know the test result on file for `Nc1ccc2c(c1)C(=O)c1cc(Cl)c(Cl)cc1-2` .
A) inactive

Q) Please let me know the test result on file for `COC(=O)[C@H](Cc1cn(C)cn1)NC(=O)[C@H](C)NC(=O)Nc1cc(C(F)(F)F)cc(C(F)(F)F)c1` .
A) active

Q) Please let me know the test result on file for `N#Cc1ncc(-c2ccc(C(F)(F)F)cc2)c(NC2CCCCCC2)n1` .
A) active

Q) Please let me know the test result on file for `CCOC(=O)Nc1cc(-c2ccc(C)c(NS(C)(=O)=O)c2)nn2c(C)nnc12` .
A) active

Q) Please let me know the test result on file for `O=C1/C(=C/c2ccccc2Cl)CCc2ccccc21` .
A) inactive

Q) Please let me know the test result on file for CC(=O)N1N=C(c2ccc(Cl)cc2)CC1c1c(C)nn(-c2ccccc2)c1N(C)Cc1ccccc1 (configuration not stated) .
A) inactive
